- experimental-target: D(1A) dopamine receptor (Homo sapiens) (UniProt P21728)
- Sequence (P21728 whole entry, looked up): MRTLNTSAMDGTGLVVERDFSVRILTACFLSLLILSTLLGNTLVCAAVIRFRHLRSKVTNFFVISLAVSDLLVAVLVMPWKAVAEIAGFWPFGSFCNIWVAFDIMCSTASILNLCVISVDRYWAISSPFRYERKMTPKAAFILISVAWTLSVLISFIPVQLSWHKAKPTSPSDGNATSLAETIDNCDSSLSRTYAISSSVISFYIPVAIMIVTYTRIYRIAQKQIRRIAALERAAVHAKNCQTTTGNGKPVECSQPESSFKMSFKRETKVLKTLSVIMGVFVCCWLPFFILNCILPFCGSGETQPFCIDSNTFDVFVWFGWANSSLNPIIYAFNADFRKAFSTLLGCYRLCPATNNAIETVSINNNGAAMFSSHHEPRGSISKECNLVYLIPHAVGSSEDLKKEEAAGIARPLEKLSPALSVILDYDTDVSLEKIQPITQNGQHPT
- test-method-notes: Allosteric Agonists of the Human D1 Dopamine Receptor: qHTS
- experimental-setup: HEK293 T-REx D1 cells, calcium flux, agonist mode; at 2 µM; stronger effect = higher value
Hit rate of the full screen: of about 360,000 compounds, about 3,700 (1%) were called active. This excerpt belongs to a sample that is enriched for actives.
For each record, write down the corresponding activation.
One number for each entry, in %.

# annotated cases, reported activation shown
Exercise: Form field: activation recorded for `CCOC(=O)c1c(C)[nH]c(CCC(=O)Nc2ccc(OC)c(OC)c2)c1C` with D(1A) dopamine receptor (Homo sapiens) (UniProt P21728) (enter value)
Key: -0.109

Exercise: Form field: activation recorded for `COc1ccc(CCNC(=O)c2ccc(CS(=O)(=O)c3ccc(Br)cc3)o2)cc1OC` with D(1A) dopamine receptor (Homo sapiens) (UniProt P21728) (enter value)
Key: 17.3

Exercise: Lab note: need activation for `CCCCN(CCCNC(=O)c1cc(Nc2ccccc2OC)nc2ccccc12)c1ccccc1` on D(1A) dopamine receptor (Homo sapiens) (UniProt P21728), anyone have it?
Key: 0.606

Exercise: State its activation on D(1A) dopamine receptor (Homo sapiens) (UniProt P21728): `COc1ccc(Nc2cc(C(=O)NCCCN(C)c3ccccc3)c3ccccc3n2)c(OC)c1`
Key: 1.01

Exercise: Please provide the recorded activation for `O=C(c1cccnc1)N1CCN(S(=O)(=O)c2cccs2)CC1` , tested on D(1A) dopamine receptor (Homo sapiens) (UniProt P21728).
Key: 1.36

Exercise: Given the entry `COc1ccc(CCNC(=O)CCCn2c(=O)c3ccccc3n(Cc3ccc(C)cc3)c2=O)cc1OC` , what activation was observed with D(1A) dopamine receptor (Homo sapiens) (UniProt P21728)?
Key: -2.01

List activation for every entry below, keeping the order given.
1. COc1ccccc1CNC(=O)c1ccc(CS(=O)c2ccccc2Cl)o1 (stereo not given)
2. Cc1ccccc1CNC(=O)C1CCCN(S(=O)(=O)N(C)c2ccc(F)cc2)C1 (stereo not given)
3. Cc1cc2c(s1)c1cnn(Cc3c(F)cccc3Cl)c(=O)c1n2C
4. CSc1nc(-c2ccc(F)cc2)nc2c1Cc1c(CO)cnc(C)c1O2

Key:
6.51
2.76
0.794
1.34

---

- experimental-target: D(1A) dopamine receptor (Homo sapiens) (UniProt P21728)
- test-method-notes: Allosteric Agonists of the Human D1 Dopamine Receptor: qHTS
- experimental-setup: HEK293 T-REx D1 cells, calcium flux, agonist mode; at 2 µM
In all, about 360,000 compounds went through this assay and about 3,700 (1%) were called active. No stated cut-off is given here; in the data, active means activation above about 30%; inactive means the rest. Only a selection was taken, and actives are over-represented in it overall.
Your reply should match one of these outcome classes. label 1 for active, label 0 for inactive

Exercise: What was the test verdict on `CCOC(=O)c1ccc(NC(=O)CCS(=O)(=O)c2ccc(C)cc2)cc1` ?
Key: label 0

Exercise: Please state the recorded outcome for this molecule: `CCOC(=O)c1c(C)oc2nc(C)nc(N(CC(C)C)CC(C)C)c12`
Key: label 0

Exercise: Give the logged outcome of this assay for the following molecule: `O=C(Nc1ccc2nc(SCC(=O)N3CCCc4ccccc43)sc2c1)c1ccc(F)cc1`
Key: label 0

Exercise: Just curious, what result did Cc1ccc(NC(=O)NC(C)c2c(-n3cccc3)sc(C)c2C)c(C)c1 (stereo not drawn) get here?
Key: label 0

Exercise: Please let me know the test result on file for `CCOc1ccc(CNCCSc2nnnn2C)cc1` .
Key: label 0

Exercise: Check the results log: what was the call for `COc1ccc(-c2ccc(CNCCCN3CCOCC3)o2)cc1Cl` ?
Key: label 0

Next:
Exercise: Identify the outcome logged in this assay for the molecule shown: `CCOC(=O)C1CCN(S(=O)(=O)c2c(C)noc2C)CC1`
Key: label 0

---

So I've got a bunch of compounds here, and I need their activation values.
- experimental-target: D(1A) dopamine receptor (Homo sapiens) (UniProt P21728)
- test-method-notes: Allosteric Agonists of the Human D1 Dopamine Receptor: qHTS
- experimental-setup: HEK293 T-REx D1 cells, calcium flux, agonist mode; at 2 µM; stronger effect = higher value
Out of some 360,000 compounds screened, about 3,700 (1%) were called active. This excerpt belongs to a sample that is enriched for actives.
Give bare numbers, in %.

Here are 3 compounds together with their reported answers.
Exercise: Can you look up the measured activation of `COc1ccc(C(=O)Nc2onc3c2CCCC3)cc1` for me?
Key: -1.07

Exercise: Field request: activation | item: `COc1ccc(C(=O)NC(=O)CSc2nnc(-c3ccco3)n2-c2ccccc2)cc1`
Key: 1

Exercise: Report activation for `CCCCCCn1nnc2sc(-c3ccccc3)cc2c1=O` please.
Key: 2.52

Please state activation for every compound in the list that follows.
1. CCOc1ccc(Cn2nnc(C(=O)NCc3ccccc3)c2N)cc1
2. CCOC(=O)c1cc2c(=O)n3ccccc3nc2n(CC2CCCO2)c1=NC(=O)c1ccc(C(C)(C)C)cc1 (configuration not stated)

Key:
[36.7, 2.73]

Okay, here is my list. What is activation for each of these?
1. Cc1cc(=O)c2cc(C(=O)Nc3cccc(C)c3C)ccc2[nH]1
2. Cc1cccc(NC(=O)c2ccc3nc(C(C)C)oc3c2)c1C
3. CCCOc1ccc(-c2cccc(NS(=O)(=O)c3ccccc3)c2)nn1
4. Cc1cc(C)cc(NS(=O)(=O)c2ccc(-c3cc(C)no3)s2)c1
5. O=S(=O)(Nc1cccc2cccnc12)c1cccc2cccnc12
6. CCCN1CN=C(NS(=O)(=O)c2ccc(NC(C)=O)cc2)NC1
7. COc1ccc(-c2nc3sc(CCNC(=O)C(C)(C)C)c(C)n3n2)cc1
8. Cc1cc(S(=O)(=O)c2cc3ccc(O)c(C)c3oc2=O)ccc1F

Key:
1: -0.195; 2: 2.14; 3: -0.134; 4: 1.79; 5: 23.3; 6: -0.217; 7: 3.98; 8: 56.6

Required: activation, one value per compound below.
1. COc1ccccc1Cc1nc2ccccc2nc1SCC(=O)N1CCCc2ccccc21
2. Cc1ccc(Cl)cc1N1CCN(C(=O)c2cnc3c(-c4ccc(F)cc4)c(C)nn3c2C)CC1
3. Cc1ccc(O)c(NC(=S)NC(=O)COc2ccc(Br)cc2)c1
4. COc1ccc(NC(=O)c2ccc3oc(=O)c(S(=O)(=O)c4ccc(F)cc4)cc3c2)c(OC)c1
5. COc1cc(Br)cc2cc(S(=O)(=O)c3ccccc3)c(=O)oc12
6. CCC(=O)Nc1ccc2nc(SCC(=O)N3CCc4ccccc43)sc2c1
7. O=C(/C=C/c1ccc(F)cc1)NC(=S)NNC(=O)c1cccnc1

Key:
1: 0.349; 2: 1.96; 3: 54.2; 4: -0.0208; 5: 2.11; 6: 4.11; 7: 1.33

Need activation for each of these compounds.
1. Cc1ccc(O)c(/C=N/NC(=O)COc2ccc3c(C)cc(=O)oc3c2)c1
2. COC(=O)c1ccc(NC(=O)c2cc(S(=O)(=O)N3CCC(C)CC3)cn2C)cc1

Key:
3.75
6.51

---

Give measured activation for each item. Keep answers brief.
- experimental-target: D(1A) dopamine receptor (Homo sapiens)
- test-method-notes: Allosteric Agonists of the Human D1 Dopamine Receptor: qHTS
- experimental-setup: HEK293 T-REx D1 cells, calcium flux, agonist mode; at 2 µM; stronger effect = higher value
The campaign covered roughly 360,000 compounds. About 3,700 (1%) were called active. This excerpt belongs to a sample that is enriched for actives.
Answers are plain numbers, in %.

Exercise: Entry under review: `CCCCOC(=O)/C(C#N)=C/c1ccc(-c2cccc(C(F)(F)F)c2)o1` . Reported activation?
Key: 6.87

Exercise: Given the entry `COCCNC(=O)c1ccc2c(c1)N(Cc1cccc(Cl)c1)C(=O)c1ccccc1S2(=O)=O` , report its measured activation.
Key: 4.3

Exercise: What value of measured activation is listed for CCOC(=O)c1ccc(N2C(=O)c3n[nH]c(C)c3C2c2ccc(O)c(OC)c2)cc1 (stereo not drawn) ?
Key: 0.253

Hi team, please reply with activation for each item in this list.
1. CCc1ccc(CNC(=O)c2ccc(CS(=O)c3ccc(Br)cc3)o2)cc1 (stereo not drawn)
2. COc1cccc(CNc2nccn(-c3ccc(OC)c(OC)c3)c2=O)c1
3. COc1cccc(NC(=O)C(=O)NCC(c2ccc3c(c2)OCO3)N2CCN(C)CC2)c1 (stereo not drawn)
4. CN(Cc1ccccc1)C(=O)CCS(=O)(=O)c1cc(Br)cc2c1N(C(=O)C1CC1)CC2
5. CCOc1ccccc1C(=O)NC1(C(F)(F)F)C(=O)Nc2c1c(=O)[nH]c(=O)n2-c1ccc(F)cc1 (stereo not drawn)
6. CCOC(=O)C1CCCN(C(=O)Cn2ncc3c(C)n(Cc4ccc(F)cc4)c(C)c3c2=O)C1 (stereo not drawn)

Key:
1. 2.59
2. 1.78
3. 5.73
4. 0.148
5. 0.807
6. 5.3

The following compounds each have a reported value; give each one's activation.
1. COc1cccc(C(=O)NCC(=O)OCc2cc(=O)n3ccsc3n2)c1
2. Cc1cccc(NC(=O)C2CCN(S(=O)(=O)c3c(C)noc3/C=C/c3ccco3)CC2)c1
3. COc1ccc(NC(=O)CSC2=Nc3ccccc3C3=NC(CC(=O)NCc4ccccc4OC)C(=O)N23)cc1Cl (stereo not drawn)
4. CC(=O)c1c(C)n(S(=O)(=O)c2ccc(Cl)cc2)c2ccc(NS(=O)(=O)c3ccc(Cl)cc3)cc12
5. CCCN1CCN(CCCNC(=O)c2ccc3nc(Cc4ccccc4)oc3c2)CC1
6. c1ccc2c(c1)C(=NC1CCCCC1)NC2=NC1CCCCC1
7. O=C(NCC(c1ccc2c(c1)OCO2)N1CCN(c2ccccc2)CC1)C(=O)Nc1ccccc1F (stereo not drawn)
8. COc1ccc(CNC(=O)C2CC(c3ccc(C(F)(F)F)cc3)=NO2)cc1 (stereo not drawn)

Key:
[-0.454, 1.4, 4.46, 2.47, 4.88, 30.7, 1.27, 16.3]

Provide each entry's activation from the list below.
1. CCOc1ccc(-c2nonc2NC(=O)c2oc3ccc(CC)cc3c2C)cc1
2. Cc1nc(-c2ccc(Cl)cc2)sc1C1(C)CC(c2ccccc2F)=NO1 (stereo not drawn)
3. CC1Cc2cc(S(=O)(=O)CCC(=O)NCc3ccc(Cl)cc3)ccc2N1C(=O)C1CC1 (stereo not drawn)
4. O=C(CSc1oc(-c2ccco2)nc1S(=O)(=O)c1ccccc1)c1ccc(Cl)cc1
5. Cc1nc(C(=O)Nc2ccc(Cl)cc2)sc1C1(C)CC(c2ccccc2)=NO1 (stereo not drawn)
6. CCCc1nc2c(c(=O)c3ccccc3n2C)c(=O)n1C1CCCCCC1

Key:
[5.77, 6.23, 14, 5.58, 6.69, 190]

Could you tell me activation for each of these compounds? They are listed below.
1. CC(C)CC(NS(=O)(=O)c1ccc2c(c1)oc(=O)n2C)C(=O)NCc1ccccc1Cl (stereo not drawn)
2. COc1ccc(OC)c(NC(=O)CSC2=Nc3ccccc3C3=NC(CC(=O)NCCc4ccccc4)C(=O)N23)c1 (stereo not drawn)
3. Cc1ccc2c(=O)cc(C(=O)Nc3sc4c(c3C(=O)NCc3cccnc3)CCCC4)oc2c1
4. CCOc1ccc(NC(=O)c2cn(C3CCCCC3)c(=O)c3c2c2ccccc2n3C)cc1

Key:
1: 3.12; 2: 1.84; 3: 1.62; 4: 2.25
